Target: α7 nicotinic ACh receptors (Homo sapiens)
Sequence (P36544 23-502): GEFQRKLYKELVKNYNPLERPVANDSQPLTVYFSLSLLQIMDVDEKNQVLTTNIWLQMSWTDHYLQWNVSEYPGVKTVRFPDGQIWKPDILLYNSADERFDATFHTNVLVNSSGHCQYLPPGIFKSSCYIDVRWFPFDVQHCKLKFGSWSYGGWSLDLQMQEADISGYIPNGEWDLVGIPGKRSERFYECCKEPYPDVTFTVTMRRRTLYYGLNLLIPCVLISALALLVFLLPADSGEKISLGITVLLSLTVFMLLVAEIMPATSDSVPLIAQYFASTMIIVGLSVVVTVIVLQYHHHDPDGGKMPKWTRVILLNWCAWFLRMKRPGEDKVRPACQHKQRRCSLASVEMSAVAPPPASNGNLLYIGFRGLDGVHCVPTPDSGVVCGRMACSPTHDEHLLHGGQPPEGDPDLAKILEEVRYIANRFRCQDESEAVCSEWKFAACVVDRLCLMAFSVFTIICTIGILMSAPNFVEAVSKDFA
Assay: Electrophysiology at α7, dose-response and co-application with ACh (Dynaflow chip)
Type: cell-based
Conditions: dose-response, FIG. 5; read-out: EC50 at α7 nicotinic receptors
MEASURED QUANTITY: EC50 (nM)
Numeric only. Scale: nM

# query: EC50 of entry O=C(N[C@@H]1C2CCN(CC2)[C@H]1Cc1cccnc1)c1cc(F)cc(F)c1
1600

----------
Target: UniProtKB Q05941
Sequence (Q05941 23-502): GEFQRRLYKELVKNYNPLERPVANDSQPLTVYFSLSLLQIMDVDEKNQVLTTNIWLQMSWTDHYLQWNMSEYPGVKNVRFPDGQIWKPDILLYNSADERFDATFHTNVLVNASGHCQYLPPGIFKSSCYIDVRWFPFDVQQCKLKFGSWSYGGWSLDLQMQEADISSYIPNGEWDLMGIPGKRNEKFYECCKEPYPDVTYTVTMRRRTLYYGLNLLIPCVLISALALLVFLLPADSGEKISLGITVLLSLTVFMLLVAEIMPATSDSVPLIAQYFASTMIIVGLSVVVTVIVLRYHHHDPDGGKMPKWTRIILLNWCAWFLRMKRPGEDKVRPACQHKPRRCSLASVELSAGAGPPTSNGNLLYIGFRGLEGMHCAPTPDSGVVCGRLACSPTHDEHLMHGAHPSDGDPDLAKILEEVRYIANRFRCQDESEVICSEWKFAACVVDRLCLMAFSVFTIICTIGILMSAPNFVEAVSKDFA
MEASURED QUANTITY: pKi
To interpret pKi, take it as minus log10 of a concentration measured in moles per litre.

Kindly state the measured pKi obtained for O=C(N[C@@H]1C2CCN(CC2)[C@H]1Cc1cccnc1)c1cc(F)cc(F)c1 with UniProtKB Q05941.
7.00
